The compounds below have reported log10 IC50 for MDR (Rattus norvegicus, UniProt P16257).
endpoint: log10 IC50 (log10 of the value in nM)

1) CC(=O)N(Cc1ccccc1[N+](=O)[O-])c1ccccc1Oc1ccccc1; 0.67
2) COc1ccccc1CN(C(=O)C1CCC1)c1ccccc1Oc1ccccc1; 0.75
3) CCOc1ccccc1CN(C(C)=O)c1ccccc1Oc1ccccc1; -0.91
4) COc1ncccc1CN(C(C)=O)c1ccccc1Oc1ccccc1; -0.30
5) CC(=O)c1ccccc1CN(C(C)=O)c1ccccc1Oc1ccccc1; -0.58
6) CCCCCC(=O)N(Cc1ccccc1OC)c1ccccc1Oc1ccccc1; 0.26

* * *

Recorded log10 of IC50 values (MDR (Rattus norvegicus, UniProt P16257)) are given below.
Counter-ions that a name gives are not always drawn.
endpoint: log10 of IC50 (log10 of the value in nM)

1. CCCc1ccccc1CN(C(C)=O)c1ccccc1Oc1ccccc1; -0.67
2. CCCCC(=O)N(Cc1ccccc1OC)c1ccccc1Oc1ccccc1; 0.18
3. COc1ccccc1CN(C(=O)COC(C)=O)c1ccccc1Oc1ccccc1; 0.95
4. COc1ccc(Oc2ccccc2N(Cc2ccccc2OC)C(C)=O)cc1; -0.79
5. CCOc1ccccc1CN(C=O)c1ccccc1Oc1ccccc1; -0.79
6. COc1ccccc1CN(C(=O)CCl)c1ccccc1Oc1ccccc1; -0.46
7. CCOc1ccccc1CN(C(=O)NC)c1ccccc1Oc1ccccc1; 0.26
8. CCCCCOc1ccccc1CN(C(C)=O)c1ccccc1Oc1ccccc1; -0.83
9. CCCCCOc1ccccc1CN(C(=O)NC)c1ccccc1Oc1ccccc1; -0.03
10. COc1ccccc1CN(C(C)=O)c1ccccc1Oc1ccccc1C; -0.95
11. CC(=O)N(Cc1ccccc1N1CCCC1)c1ccccc1Oc1ccccc1 [Compound 054, monohydrochloride]; 0.10
12. CCCOc1ccccc1CN(C(=O)NC)c1ccccc1Oc1ccccc1; -0.14
13. CC(=O)N(Cc1ccccc1)c1ccccc1Oc1ccccc1; 0.47
14. COc1ccccc1CN(C(C)=O)c1ccc(F)cc1Oc1ccccc1; -0.46
15. COc1ccccc1CN(C(C)=O)c1ccccc1Oc1cccc(F)c1; -0.38
16. COc1ccc(Oc2ccccc2)c(N(Cc2ccccc2OC)C(C)=O)c1; 0.91
17. CC(=O)N(Cc1ccccc1F)c1ccccc1Oc1ccccc1; 0.83
18. CC(=O)N(Cc1ccccc1C=O)c1ccccc1Oc1ccccc1; -0.42
19. COc1ccccc1N(C(C)=O)c1ccccc1Oc1ccccc1; 0.99
